System: OCI-Ly10 human DLBCL cells
experiment-notes: OCI-Ly10 anti-proliferative activity (Resazurin, 72 h)
Format: cell-based
settings: Homo sapiens, OCI-Ly10, 72 h, read-out: Proliferation OCI-Ly10-IC50
pIC50: −log10 of the molar value.
assay-readout: pIC50

{"molecule": "CC(C)c1ccccc1C(=O)NCc1ccc(-c2nn(C3CCCC3)c3ncnc(N)c23)cc1", "pIC50": "5.00 to 6.00"}
{"molecule": "COc1ccc(C(F)(F)F)cc1C(=O)NCc1ccc(-c2nn(C3CCCC3)c3ncnc(N)c23)cc1", "pIC50": "6.00 to 7.00"}
{"molecule": "COc1ccccc1C(=O)NCc1ccc(-c2nn(CC(C)C)c3ncnc(N)c23)cc1", "pIC50": "6.00 to 7.00"}
{"molecule": "COc1ccccc1C(=O)NCc1ccc(-c2nn(CC(F)(F)F)c3ncnc(N)c23)cc1", "pIC50": "5.00 to 6.00"}
{"molecule": "COc1ccc(F)cc1C(=O)NCc1ccc(-c2nn(CC(F)(F)F)c3ncnc(N)c23)cc1", "pIC50": "6.00 to 7.00"}
{"molecule": "COc1ccc2ccccc2c1C(=O)NCc1ccc(-c2nn(C3CCCC3)c3ncnc(N)c23)cc1", "pIC50": "5.00 to 6.00"}
{"molecule": "CCOC(=O)C1CCC(n2nc(-c3ccc(CNC(=O)c4ccccc4OC)cc3)c3c(N)ncnc32)CC1 (stereo not shown)", "pIC50": "7.00 to 8.00"}
{"molecule": "COc1ccccc1C(=O)NCc1ccc(-c2nn(C3CCCC(O)C3)c3ncnc(N)c23)cc1 (stereo not shown)", "pIC50": "6.00 to 7.00"}

Per the record, COc1ccccc1C(=O)NCc1ccc(-c2nn(C3CCCC3)c3ncnc(N)c23)cc1 has pIC50 of 7.00 to 8.00

Per the record, COc1c(F)cccc1C(=O)NCc1ccc(-c2nn(C3CCCC3)c3ncnc(N)c23)cc1 has pIC50 of 6.00 to 7.00

###

test-target: BTK^C481S (Homo sapiens (Human), UniProt Q06187, C481S)
Sequence (Q06187 whole entry C481S): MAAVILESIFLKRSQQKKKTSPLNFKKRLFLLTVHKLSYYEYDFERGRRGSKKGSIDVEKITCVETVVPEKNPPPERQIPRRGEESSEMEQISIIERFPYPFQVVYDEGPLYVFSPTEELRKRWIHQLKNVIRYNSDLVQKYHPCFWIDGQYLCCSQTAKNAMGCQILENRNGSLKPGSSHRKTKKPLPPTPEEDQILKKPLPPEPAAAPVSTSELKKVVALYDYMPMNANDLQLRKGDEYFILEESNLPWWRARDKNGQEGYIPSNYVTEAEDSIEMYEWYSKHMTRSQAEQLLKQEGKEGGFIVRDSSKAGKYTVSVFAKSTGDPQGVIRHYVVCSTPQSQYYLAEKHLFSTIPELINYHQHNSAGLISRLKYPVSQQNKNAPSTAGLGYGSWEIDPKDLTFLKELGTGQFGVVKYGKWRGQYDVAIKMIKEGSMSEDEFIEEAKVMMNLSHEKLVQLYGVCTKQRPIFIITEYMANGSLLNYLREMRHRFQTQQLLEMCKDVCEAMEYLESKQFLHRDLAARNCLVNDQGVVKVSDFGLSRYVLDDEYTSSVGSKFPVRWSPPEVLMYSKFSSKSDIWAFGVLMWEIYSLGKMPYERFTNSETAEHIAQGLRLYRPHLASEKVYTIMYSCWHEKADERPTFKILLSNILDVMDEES
experiment-notes: BTK^C481S binding affinity (TR-FRET, LanthaScreen)
settings: 5 h incubation
assay-readout: IC50

{"compound": "COc1ccccc1C(=O)NCc1ccc(-c2nn([C@H]3C=C[C@@H](OC(=O)C(C)(C)C)C3)c3ncnc(N)c23)cc1 [Example 48]", "IC50": "≤ 0.01 µM"}
{"compound": "COc1ccccc1C(=O)NCc1ccc(-c2nn([C@H]3C=C[C@H](F)C3)c3ncnc(N)c23)cc1 [Example 54]", "IC50": "≤ 0.01 µM"}
{"compound": "COc1ccccc1C(=O)NCc1ccc(-c2nn([C@H]3C=C[C@H](OC(C)=O)C3)c3ncnc(N)c23)cc1 [Example 35]", "IC50": "≤ 0.01 µM"}
{"compound": "COc1ccncc1C(=O)NCc1ccc(-c2nn(C3CCCC3)c3ncnc(N)c23)cc1 [Example 27]", "IC50": "0.01 to 0.1 µM"}
{"compound": "CCOC(=O)C1CCCC(n2nc(-c3ccc(CNC(=O)c4ccccc4OC)cc3)c3c(N)ncnc32)C1 (stereo not shown) [Example 41]", "IC50": "≤ 0.01 µM"}

Per the record, COc1ccccc1C(=O)NCc1c(F)cc(-c2nn(C3CCCC3)c3ncnc(N)c23)cc1F [Example 73] has IC50 of 0.01 to 0.1 µM

Per the record, COc1ccccc1C(=O)NCc1ccc(-c2nn(CC(F)(F)F)c3ncnc(N)c23)cc1 [Example 90] has IC50 of 0.01 to 0.1 µM

###

Form field: IC50 (one value per entry).
test-target: BTK^WT (Homo sapiens (Human))
Sequence (Q06187 whole entry): as the sequence (Q06187 whole entry C481S) above, with S481C counted along it
experiment-notes: BTK^WT binding affinity (TR-FRET, LanthaScreen)
settings: TR-FRET binding, 5 h incubation; read-out: BTK^WT IC50

Would you please look over these solved cases?
{"molecule": "Nc1ncnc2c1c(-c1ccc(CNC(=O)c3ccccc3OC(F)(F)F)cc1)nn2C1CCCC1 [Example 6]", "test-target": "BTK^WT (Homo sapiens (Human))", "IC50": "0.1 to 1 µM"}
{"molecule": "COc1ccccc1C(=O)NCc1ccc(-c2nn(C3CCC(=O)C3)c3ncnc(N)c23)cc1 (stereo not shown) [Example 21]", "test-target": "BTK^WT (Homo sapiens (Human))", "IC50": "≤ 0.01 µM"}
{"molecule": "COCCNc1ncnc2c1c(-c1ccc(CNC(=O)c3ccccc3OC)cc1)nn2[C@H]1C=C[C@H](O)C1 [Example 58]", "test-target": "BTK^WT (Homo sapiens (Human))", "IC50": "≤ 0.01 µM"}
{"molecule": "COc1ccccc1C(=O)NCc1ccc(-c2nn([C@@H]3CC[C@H](O)C3)c3ncnc(N)c23)cc1 (relative stereo) [Example 24]", "test-target": "BTK^WT (Homo sapiens (Human))", "IC50": "≤ 0.01 µM"}

Per the record, COc1ccc(C(F)(F)F)cc1C(=O)NCc1ccc(-c2nn(C3CCCC3)c3ncnc(N)c23)cc1 [Example 13] has IC50 of 0.1 to 1 µM

Per the record, CNC1CCC(n2nc(-c3ccc(CNC(=O)c4ccccc4OC)cc3)c3c(N)ncnc32)CC1 (stereo not shown) [Example 28] has IC50 of 0.01 to 0.1 µM

Per the record, COc1ccc(Cl)cc1C(=O)NCc1ccc(-c2nn(C3CCCC3)c3ncnc(N)c23)cc1 [Example 11] has IC50 of ≤ 0.01 µM

###

Test system: OCI-Ly10 human DLBCL cells
experiment-notes: OCI-Ly10 anti-proliferative activity (Resazurin, 72 h)
Assay type: cell-based
settings: Homo sapiens, OCI-Ly10, 72 h, read-out: Proliferation OCI-Ly10-IC50
assay-readout: IC50

Would you please look over these solved cases?
{"compound": "COc1ccccc1C(=O)NCc1ccc(-c2nn(C3CCC(=O)C3)c3ncnc(N)c23)cc1 (stereo not shown) [Example 21]", "IC50": "100 to 1000 nM"}
{"compound": "COc1cc(-c2nn(C3CCCC3)c3ncnc(N)c23)ccc1CNC(=O)c1ccccc1OC [Example 75]", "IC50": "10 to 100 nM"}
{"compound": "COc1ccccc1C(=O)NCc1ccc(-c2nn([C@@H]3C[C@@H](O)C4CC43)c3ncnc(N)c23)cc1 (stereo partly shown) [Example 45]", "IC50": "100 to 1000 nM"}

Per the record, COc1cccc(F)c1C(=O)NCc1ccc(-c2nn(C3CCCC3)c3ncnc(N)c23)cc1 [Example 16] has IC50 of 1000 to 10000 nM

###

Tested on: OCI-Ly10 human DLBCL cells
experiment-notes: OCI-Ly10 anti-proliferative activity (Resazurin, 72 h)
Assay type: cell-based
settings: Homo sapiens, OCI-Ly10, 72 h, read-out: Proliferation OCI-Ly10-IC50
pIC50: −log10 of the molar value.
Form field: pIC50 (one value per entry).

Would you please look over these solved cases?
{"smiles-record": "COc1ccccc1C(=O)NCc1ccc(-c2nn(C3CCCC3)c3ncnc(N)c23)cc1F", "assay-readout": "pIC50", "reported": "7.00 to 8.00"}
{"smiles-record": "COc1ccccc1C(=O)NCc1ccc(-c2nn([C@@H]3C=C[C@H](O)C3)c3ncnc(N)c23)cc1", "assay-readout": "pIC50", "reported": "6.00 to 7.00"}
{"smiles-record": "CC(C)(C)n1nc(-c2ccc(CNC(=O)c3cc4ccccc4o3)cc2)c2c(N)ncnc21", "assay-readout": "pIC50", "reported": "5.00 to 6.00"}
{"smiles-record": "COc1ccccc1C(=O)NCc1ccc(-c2nn([C@@H]3C=C[C@@H](O)C3)c3ncnc(N)c23)cc1", "assay-readout": "pIC50", "reported": "6.00 to 7.00"}

Measured pIC50 for this entry COc1ccncc1C(=O)NCc1ccc(-c2nn(C3CCCC3)c3ncnc(N)c23)cc1 on OCI-Ly10 human DLBCL cells: 6.00 to 7.00

Measured pIC50 for this entry CCOc1ccccc1C(=O)NCc1ccc(-c2nn(C3CCCC3)c3ncnc(N)c23)cc1 on OCI-Ly10 human DLBCL cells: 6.00 to 7.00

Measured pIC50 for this entry COc1ccccc1C(=O)NCc1ccc(-c2nn(C3CCCC3)c3ncnc(N)c23)c(OC)c1 on OCI-Ly10 human DLBCL cells: 7.00 to 8.00

Measured pIC50 for this entry COc1cc(F)ccc1C(=O)NCc1ccc(-c2nn(C3CCCC3)c3ncnc(N)c23)cc1 on OCI-Ly10 human DLBCL cells: 7.00 to 8.00

###

// EGFR (Homo sapiens (Human), UniProt P00533) IC50 records

Would you please look over these solved cases?
{"molecule": "COc1ccccc1C(=O)NCc1ccc(-c2nn(C3CCC(O)CC3)c3ncnc(N)c23)cc1 (single isomer, unassigned) [Example 23-isomer2]", "IC50": "100 to 1000 nM"}
{"molecule": "CCOc1ccccc1C(=O)NCc1ccc(-c2nn(C3CCCC3)c3ncnc(N)c23)cc1", "IC50": "1000 to 10000 nM"}
{"molecule": "COc1ccc(F)cc1C(=O)NCc1ccc(-c2nn(C(C)(C)C)c3ncnc(N)c23)cc1", "IC50": "100 to 1000 nM"}

Below: the item to evaluate.
Measured IC50 for this entry COc1ccccc1C(=O)NCc1ccc(-c2nn([C@@H]3C=C[C@@H](O)C3)c3ncnc(N)c23)cc1 on EGFR (Homo sapiens (Human), UniProt P00533): 100 to 1000 nM
